molecular target: JARID1B (Homo sapiens, UniProt Q9UGL1); construct: The FLAG tagged full length JARID1B enzyme was expressed in Sf21 insect cells using FLAG-JARID1B baculoviruses; FLAG (N); made in house; host or cells: Sf21 insect cells (baculovirus); assay: FLAG-JARID1B histone demethylase assay with AlphaScreen detection (HTS and dose response); assay type: biochemical; conditions: validation of HTS actives; effect of compound in JARID1B AlphaScreen assay;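 also: FLAG-tagged JARID1B at 4 nM acting on a biotinylated H3K4me3 peptide, demethylation read by AlphaScreen luminescence, with hits checked against bio-H3K4me2 without enzyme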;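 also: compound tested at 20 µM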
Sequence (Q9UGL1 whole entry): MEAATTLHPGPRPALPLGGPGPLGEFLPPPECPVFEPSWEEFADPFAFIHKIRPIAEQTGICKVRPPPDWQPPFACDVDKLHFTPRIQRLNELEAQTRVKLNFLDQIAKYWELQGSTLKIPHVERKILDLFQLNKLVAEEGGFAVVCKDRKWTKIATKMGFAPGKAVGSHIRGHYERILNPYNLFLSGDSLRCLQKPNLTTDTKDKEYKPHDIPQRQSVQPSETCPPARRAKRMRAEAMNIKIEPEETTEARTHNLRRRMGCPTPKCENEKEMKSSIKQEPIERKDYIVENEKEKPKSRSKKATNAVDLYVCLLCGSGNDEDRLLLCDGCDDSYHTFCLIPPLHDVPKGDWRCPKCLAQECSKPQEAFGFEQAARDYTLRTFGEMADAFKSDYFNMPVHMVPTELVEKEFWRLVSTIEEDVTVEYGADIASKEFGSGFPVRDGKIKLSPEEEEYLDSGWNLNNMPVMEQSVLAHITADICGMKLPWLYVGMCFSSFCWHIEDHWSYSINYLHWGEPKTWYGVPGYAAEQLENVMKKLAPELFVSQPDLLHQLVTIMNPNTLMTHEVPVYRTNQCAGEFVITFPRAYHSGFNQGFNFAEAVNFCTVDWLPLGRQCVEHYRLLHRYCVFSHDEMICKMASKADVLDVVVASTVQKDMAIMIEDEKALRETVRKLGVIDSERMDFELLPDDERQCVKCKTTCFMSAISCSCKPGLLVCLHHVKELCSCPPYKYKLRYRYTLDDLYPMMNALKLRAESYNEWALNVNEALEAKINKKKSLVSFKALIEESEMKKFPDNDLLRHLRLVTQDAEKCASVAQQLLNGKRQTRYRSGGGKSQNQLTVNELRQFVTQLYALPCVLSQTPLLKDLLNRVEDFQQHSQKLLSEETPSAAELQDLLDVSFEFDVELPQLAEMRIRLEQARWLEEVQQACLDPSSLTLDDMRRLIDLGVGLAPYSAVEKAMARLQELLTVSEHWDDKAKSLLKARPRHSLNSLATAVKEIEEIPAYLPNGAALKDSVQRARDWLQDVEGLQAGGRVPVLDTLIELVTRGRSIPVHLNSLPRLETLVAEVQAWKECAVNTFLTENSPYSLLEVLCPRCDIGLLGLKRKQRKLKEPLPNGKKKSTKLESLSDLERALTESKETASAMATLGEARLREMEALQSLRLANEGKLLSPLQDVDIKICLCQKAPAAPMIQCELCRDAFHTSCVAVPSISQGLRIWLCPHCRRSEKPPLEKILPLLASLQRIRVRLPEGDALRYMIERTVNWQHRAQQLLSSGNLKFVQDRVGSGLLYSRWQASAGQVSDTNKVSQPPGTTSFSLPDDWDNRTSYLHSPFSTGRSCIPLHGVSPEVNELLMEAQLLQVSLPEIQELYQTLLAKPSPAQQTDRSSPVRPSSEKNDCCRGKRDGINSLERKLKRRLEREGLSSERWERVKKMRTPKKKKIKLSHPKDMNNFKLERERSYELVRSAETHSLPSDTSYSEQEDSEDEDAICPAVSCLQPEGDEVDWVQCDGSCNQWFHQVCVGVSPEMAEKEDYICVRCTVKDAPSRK
Outcome: yes for Assay Signal (percent) of at least 60%; no for anything lower.

As a guide, the following entries are already answered.
MOLECULE | CLASS_ASSIGNMENT
COCc1cc(O)c(O)c(O)c1-c1c(COC)cc(O)c(O)c1O [YU154887, reference compound] | yes
CCC(=O)c1c(O)n(C)c(=O)n(C)c1=O | no
Oc1cc(O)c2c(c1)O[C@H](c1ccc(O)c(O)c1)[C@H](O)C2 [YU155618, EPICATECHIN, reference compound] | yes
O=C(O)c1ccnc(C(=O)O)c1 [YU221215, 2,4-Pyridinedicarboxylic Acid, reference compound] | yes

Req: Threshold query (Assay Signal (percent) >= 60%) on NC(=O)c1ncn([C@@H]2O[C@H](CO)[C@@H](O)[C@H]2O)n1 [YU034518, RIBAVIRIN, reference compound]
Resp: no
